Test system: hot plate stimulus
Assay: Mouse hot plate test
Assay type: in vivo
Conditions: dose 40 mg/kg, time 30 min.
Experimental: The mouse hot plate test is an assay which only detects centrally-mediated analgesic effects. This test was carried out using the protocol described in G. Woolfe and A. MacDonald, J. Pharmacol. Exp. Ther., 80, p. 300 ([…]). Since most of the peptides of the invention were not potent centrally, it was impossible to determine an ED50 value. […] A result is considered insignificant if 30% of mice or lower have responded.
Non-standard residues stand in square brackets, D forms with d. Residues, ends and D or L forms follow the SMILES beside them. Orn = NCCC[C@H](N)C(=O)O
Task for the reader: assign each of the following compounds its reported % of animals showing a 50% increase.
Numbers only, in %.

These solved cases illustrate the format of a correct answer.
>>> measured("NCCC[C@H](NC(=O)[C@H](Cc1ccccc1)NC(=O)[C@@H](CO)NC(=O)[C@@H](N)Cc1ccc(O)cc1)C(N)=O [BCH-2461, H-Tyr-D-Ser-Phe-Orn-NH2] (H-Y[dS]F[Orn]-NH2)")
50
>>> measured("C[C@@H](NC(=O)[C@@H](N)Cc1ccc(O)cc1)C(=O)N[C@@H](Cc1ccccc1)C(=O)N[C@@H](CCCN)C(N)=O [BCH-2219, H-Tyr-D-Ala-Phe-Orn-NH2] (H-Y[dA]F[Orn]-NH2)")
60

Alright, here's another compound for you.
query: In one line, give reported % of animals showing a 50% increase of the entry CC(C)[C@@H](NC(=O)[C@@H](N)Cc1ccc(O)cc1)C(=O)N[C@@H](Cc1ccccc1)C(=O)N[C@@H](CCCN)C(N)=O [BCH-2458, H-Tyr-D-Val-Phe-Orn-NH2] (H-Y[dV]F[Orn]-NH2) .
result: 30

* * *

Biological target: δ-opioid receptor (Rattus norvegicus)
Sequence (P33533 whole entry): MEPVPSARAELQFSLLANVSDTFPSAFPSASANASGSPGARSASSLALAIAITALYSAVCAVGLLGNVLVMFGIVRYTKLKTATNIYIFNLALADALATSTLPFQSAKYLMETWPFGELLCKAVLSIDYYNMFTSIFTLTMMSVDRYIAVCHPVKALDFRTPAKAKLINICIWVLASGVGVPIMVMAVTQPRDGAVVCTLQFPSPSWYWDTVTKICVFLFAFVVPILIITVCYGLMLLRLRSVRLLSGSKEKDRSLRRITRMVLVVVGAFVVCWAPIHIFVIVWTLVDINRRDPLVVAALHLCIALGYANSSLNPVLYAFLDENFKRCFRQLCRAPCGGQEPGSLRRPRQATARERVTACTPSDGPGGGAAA
readout_name: pKd
Answers are plain numbers, as −log10 of the molar value.

query: Report the value of pKd obtained on δ-opioid receptor (Rattus norvegicus) for CC(C)C[C@H](NC(=O)[C@H](Cc1ccccc1)NC(=O)CNC(=O)[C@@H](CO)NC(=O)[C@@H](N)Cc1ccc(O)cc1)C(=O)N[C@H](C(=O)O)[C@@H](C)O [[^3 H]DSLET, reference compound] .
result: 8.59

* * *

Tested on: guinea pig ileum (GPI)
Format: cell-based
Non-standard residues stand in square brackets, D forms with d. Residues, ends and D or L forms follow the SMILES beside them. dNle = CCCC[C@@H](N)C(=O)O; dNva = CCC[C@@H](N)C(=O)O; Orn = NCCC[C@H](N)C(=O)O; Dab = NCC[C@H](N)C(=O)O
readout_name: IC50 (nM)
Numbers only, in nM.

Recorded results for 3 molecules are shown here.
>>> measured("CCC[C@@H](NC(=O)[C@@H](N)Cc1ccc(O)cc1)C(=O)N[C@@H](Cc1ccccc1)C(=O)N[C@@H](CCCN)C(N)=O [BCH-752, H-Tyr-D-Nva-Phe-Orn-NH2] (H-Y[dNva]F[Orn]-NH2)")
104
>>> measured("CCCC[C@@H](NC(=O)[C@@H](N)Cc1ccc(O)cc1)C(=O)N[C@@H](Cc1ccccc1)C(=O)N[C@@H](CCCN)C(N)=O [BCH-1763, H-Tyr-D-Nle-Phe-Orn-NH2] (H-Y[dNle]F[Orn]-NH2)")
168
>>> measured("NCCCC[C@H](NC(=O)[C@H](Cc1ccccc1)NC(=O)[C@@H](CCCN=C(N)N)NC(=O)[C@@H](N)Cc1ccc(O)cc1)C(N)=O [BCH-150, H-Tyr-D-Arg-Phe-Lys-NH2]")
338

// batch mode: one IC50 value per listed entry
1. N=C(N)NCCC[C@@H](NC(=O)[C@@H](N)Cc1ccc(O)cc1)C(=O)N[C@@H](Cc1ccccc1)C(=O)N[C@@H](CCCN)C(N)=O [BCH-1765, H-Tyr-D-Arg-Phe-Orn-NH2]
2. N=C(N)NCCC[C@@H](NC(=O)[C@@H](N)Cc1ccc(O)cc1)C(=O)N[C@@H](Cc1ccccc1)C(=O)N[C@@H](CCN)C(N)=O [BCH-1764, H-Tyr-D-Arg-Phe-A2 bu-NH2] (H-Y[dR]F[Dab]-NH2)

result:
346
257
